Biological target: biotinylated (prokaryotic) IL-6 (Homo sapiens, UniProt P05231)
Sequence (P05231 30-212): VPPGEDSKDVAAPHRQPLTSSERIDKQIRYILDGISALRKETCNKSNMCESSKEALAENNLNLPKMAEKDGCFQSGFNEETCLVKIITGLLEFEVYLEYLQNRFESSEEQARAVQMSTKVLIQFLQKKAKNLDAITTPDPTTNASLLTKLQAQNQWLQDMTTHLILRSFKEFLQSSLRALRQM
Experiment: Surface plasmon resonance (Biacore), biotinylated IL-6 captured on streptavidin sensor chip
Assay type: binding
Conditions: purified Fab
observationType: kd (s⁻¹)
Give the value in s⁻¹ but do not write s⁻¹ after it.

Observe how each entry below is paired with its result.
>>> quantitativereadout("18C9: antagonistic IL-6-specific Fab clone from immunized llama (antibody, listed as Lama glama, V domains shown) VH: EVQLVESGGGLVQPGGSLRLSCAASGFTFSRNAMSWVRQAPGKGLEWVSAINSGGGSTSYADSVKGRFTISRDNAKNTLYLQMNSLKPEDTAVYYCAKEGYTGWKDPMYDYWGQGTQVTVSS VL: LNFMLTQPSALSVTLGQTAKITCQGGSLGSRYAHWYQQKPGQAPVLVIYDDDSRPSGIPERFSGSSSGGRATLTISGAQAEDDGDYYCQSADSSGNASVFGGGTHLTVLG")
0.00119
>>> quantitativereadout("20A4: antagonistic IL-6-specific Fab clone, parental of 68F2 (antibody, listed as Lama glama, V domains shown) VH: EVQLQESGPGLVKPSQTLSLTCTVSGGSITTRYYAWSWIRQPPGKGLEWMGVIDYDGDTYYSPSLKSRTSISWDTSKNQFSLQLSSVTPEDTAVYYCARDPDVVTGFHYDYWGQGTQVTVSS VL: ALNFMLTQPPSVSGTLGKTVTISCAGTSSDIGGYNYVSWYQQLPGTAPKLLIHRVSTRASGIPDRFSGSKSGNTASLTISGLRSEDEANYYCASYRNFNNAVFGGGTQLTVLG")
0.00168
>>> quantitativereadout("18C7: antagonistic IL-6-specific Fab clone from immunized llama (antibody, listed as Lama glama, V domains shown) VH: EVQLVESGPGLVKPSQTLSLTCTVSGGSITASFDAWSWIRQPPGKGLEWMGVIAYDGSTYYSPSLKSRTSISRDTSKNQFSLQLSSVTPEDTAVYYCARKSSWLIGYGMDYWGKGTLVTVSS VL: QAGLTQPSALSVTLGQTAKITCQGGSLGSSYAHWYQQKPGQAPVLVIYDDDSRPSGIPERFSGSSSGGRATLTISGAQAEDEGDYYCQSADSSGNAAVFGGGTHLTVLG")
0.00185

Proceeding to the next molecule to report its kd.
QUERY: Consider the molecule shown here: 24E9: antagonistic IL-6-specific Fab clone from immunized llama (antibody, listed as Lama glama, V domains shown) VH: EVQLVESGGGLVQPGGSLRLSCAASGFTFSTYAMSWVRQAPGKGPEWVSRISSGGGSTNYADSVKGRFTISRDNAKKTLYLQMKSLKPEDTAVYYCANRAGWGMGDYWGQGTQVTVSS VL: QTVVTQEPSLSVSPGGTVTLTCGLSSGSVTASNYPGWFQQTPGQAPRALIYSTNDRHSGVPSRFSGSISGNKAALTITGAQPEDEADYYCALDIGDITEFGGGTHLTVLG What is its recorded kd?
RESULT: 0.000139

The measured values listed here are drawn from patent US11827701B2.
